Test system: Lung
TEST DESCRIPTION: Biodistribution in lung of mouse B16F0 cells implanted C57BL/6J mouse assessed per gram of tissue at 0.4 to 5.5 MBq, iv after 6 hrs by gamma counter
Type: ADME, organism-based
ASSAY SETUP: in vivo
Recorded Drug uptake values for a group of compounds are listed next.
State the answer as a number, implicitly in %.

CCN(CC)CCNC(=O)c1ccc([18F])nc1 | 0.07
CCN(CC)CCNC(=O)c1cccnc1[18F] | 0.2

// query System Lung. Read-out Drug uptake. Item CCCCN(C)CCCCNC(=O)c1ccc([18F])nc1 . Report value.
// result 2.2

// query # return Drug uptake for CCN(CC)CCNC(=O)c1ccnc([18F])c1 , test system: Lung
// result 0.14

* * *

Tested on: Thyroid gland
TEST DESCRIPTION: Biodistribution in thyroid of mouse B16F0 cells implanted C57BL/6J mouse assessed per gram of tissue at 0.4 to 5.5 MBq, iv after 3 hrs by gamma counter
Type: ADME, organism-based
ASSAY SETUP: in vivo
PROPERTY MEASURED: Drug uptake (%)
Lab book: enter the figure in %, no units written.

Consider the following illustrative entries.
CCN(CC)CCNC(=O)c1ccnc([18F])c1 | 1.5
CCCCN(C)CCCCNC(=O)c1ccc([18F])nc1 | 2.9
CCN(CC)CCNC(=O)c1cccnc1[18F] | 2.1

Shift focus to the following entry.
// query Lab note: Thyroid gland assay, enter Drug uptake for CCN(CC)CCNC(=O)c1ccc([18F])nc1 here
// result 0.49

* * *

Drug uptake reference
Tested on: Lung
TEST DESCRIPTION: Biodistribution in lung of mouse B16F0 cells implanted C57BL/6J mouse assessed per gram of tissue at 0.4 to 5.5 MBq, iv after 1 hr by gamma counter
Format: ADME, organism-based
ASSAY SETUP: in vivo
Value expressed in %; do not type the unit.

Illustrative cases are given below, each with its answer.
CCCCN(C)CCCCNC(=O)c1ccc([18F])nc1 | 4.5
CCN(CC)CCNC(=O)c1ccnc([18F])c1 | 1.8
CCN(CC)CCNC(=O)c1cccnc1[18F] | 1.5

Here is the next item to consider.
// query Check the records and state Drug uptake for CCN(CC)CCNC(=O)c1ccc([18F])nc1
// result 1.6

* * *

Consider the following compounds and their measured Drug uptake readings.
System: Spleen
TEST DESCRIPTION: Biodistribution in spleen of mouse B16F0 cells implanted C57BL/6J mouse assessed per gram of tissue at 0.4 to 5.5 MBq, iv after 6 hrs by gamma counter
Format: ADME, organism-based
ASSAY SETUP: in vivo
# unit: % | format: bare number

CCCCN(C)CCCCNC(=O)c1ccc([18F])nc1 | 4.1

// query Give recorded Drug uptake. CCN(CC)CCNC(=O)c1cccnc1[18F]
// result 0.5

// query Please look at this compound and report its Drug uptake: CCN(CC)CCNC(=O)c1ccc([18F])nc1
// result 0.47

// query Retrieve Drug uptake measured for CCN(CC)CCNC(=O)c1ccnc([18F])c1 and print it.
// result 1.3

* * *

Reported Drug uptake is given for each of the following compounds.
Tested on: Spleen
TEST DESCRIPTION: Biodistribution in spleen of mouse B16F0 cells implanted C57BL/6J mouse assessed per gram of tissue at 0.4 to 5.5 MBq, iv after 1 hr by gamma counter
Assay type: ADME, organism-based
ASSAY SETUP: in vivo
Hi! Could you send only the number? It should be in %, unit omitted.

Solved entries:
CCN(CC)CCNC(=O)c1ccc([18F])nc1 | 2.4
CCN(CC)CCNC(=O)c1cccnc1[18F] | 9.2
CCCCN(C)CCCCNC(=O)c1ccc([18F])nc1 | 7.4

Moving on to another compound below.
// query Give the reported Drug uptake for this compound. CCN(CC)CCNC(=O)c1ccnc([18F])c1
// result 3.2
